# Tested on: normal primary NK cells, pool 1 (3 donors) (IL-2 2.5 ng/mL)
# measurement_notes: percent inhibition of viability; higher = more inhibition
# recorded_conditions: 72 h; 10000 nM
Reported percent inhibition of viability maps to class as: band 1: < 40%; band 2: ≥ 40% and < 70%; band 3: ≥ 70%

# example entries with known answers
INSERT INTO results (molecule, qualitative_label) VALUES
  ('C=CCn1c(=O)c2cnc(Nc3ccc(N4CCN(C)CC4)cc3)nc2n1-c1cccc(C(C)(C)O)n1 [MK1775] (max concentration tested 10000 nM)', 'band 2'),
  ('CC[C@H](CC#N)OC(=O)N[C@@H](C)c1cccc(NC(=O)Nc2ccc(-c3cnco3)c(OC)c2)c1 [AVN944] (max concentration tested 10000 nM)', 'band 1'),
  ('O=C(CCCCCCNC(=O)c1cnc(N(c2ccccc2)c2ccccc2)nc1)NO [Rocilinostat] (max concentration tested 10000 nM)', 'band 3');

Attention now shifts to the item below.
Note: place this molecule into its band. Item: O=C(CCCCCCC(=O)Nc1ccc([C@H]2O[C@@H](CSc3nc(-c4ccccc4)c(-c4ccccc4)o3)C[C@@H](c3ccc(CO)cc3)O2)cc1)NO [Tubacin] (max concentration tested 10000 nM)
band 2

====

List of percent inhibition of viability values.
# Test system: normal primary NK cells, pool 3 (3 donors) (IL-2 2.5 ng/mL)
# measurement_notes: percent inhibition of viability; higher = more inhibition
# recorded_conditions: 72 h; 1 nM
Give the number; % is assumed, so skip it.

See these solved cases before continuing.
INSERT INTO assay_data (compound, output_unit, endpoint_result) VALUES
  ('CCCc1cc(C)[nH]c(=O)c1CNC(=O)c1cc(-c2ccnc(N3CCN(C)CC3)c2)cc2c1cnn2C(C)C [GSK343] (max concentration tested 10000 nM)', '%', -4.17),
  ('COc1nc(N)nc2c1ncn2[C@@H]1O[C@H](CO)[C@@H](O)[C@@H]1O [Nelarabine] (max concentration tested 10000 nM)', '%', 11.4),
  ('Cn1c(=O)n(-c2ccc(C(C)(C)C#N)cc2)c2c3cc(-c4cnc5ccccc5c4)ccc3ncc21 [Dactolisib] (max concentration tested 1000 nM)', '%', 6.19),
  ('Cc1ccc(Nc2nccc(N(C)c3ccc4c(C)n(C)nc4c3)n2)cc1S(N)(=O)=O [Pazopanib] (max concentration tested 10000 nM)', '%', -10.1),
  ('C[C@]12O[C@H](C[C@]1(O)CO)n1c3ccccc3c3c4c(c5c6ccccc6n2c5c31)CNC4=O [Lestaurtinib] (max concentration tested 1000 nM)', '%', -14),
  ('O=C(O)c1ccc(-c2c[nH]c3ncc(-c4ccccc4)cc23)cc1C1CCCC1 (max concentration tested 10000 nM)', '%', 2.83),
  ('Cn1c(CCCC(=O)O)nc2cc(N(CCCl)CCCl)ccc21 [Bendamustine] (max concentration tested 10000 nM)', '%', -2.58),
  ('Nc1nc(OCc2cc(Br)cs2)c2[nH]cnc2n1 [Lomeguatrib] (max concentration tested 10000 nM)', '%', 0.89),
  ('CCCCCCCCc1ccc(CCC(N)(CO)CO)cc1 [Fingolimod] (max concentration tested 10000 nM)', '%', -17.7),
  ('CO[C@H]1C[C@@H]2CC[C@@H](C)[C@@](O)(O2)C(=O)C(=O)N2CCCC[C@H]2C(=O)O[C@H]([C@H](C)C[C@@H]2CC[C@@H](OCCO)[C@H](OC)C2)CC(=O)[C@H](C)/C=C(\C)[C@@H](O)[C@@H](OC)C(=O)[C@H](C)C[C@H](C)/C=C/C=C/C=C/1C [Everolimus] (max concentration tested 100 nM)', '%', -3.14);

Given CO[C@@H](C(=O)N1Cc2[nH]nc(NC(=O)c3ccc(N4CCN(C)CC4)cc3)c2C1)c1ccccc1 [Danusertib] (max concentration tested 10000 nM) , state its recorded percent inhibition of viability.
-3.44

Consider the compound shown here: CCC(C)(C)C(=O)O[C@H]1C[C@@H](C)C=C2C=C[C@H](C)[C@H](CC[C@@H]3C[C@@H](O)CC(=O)O3)[C@H]21 [Simvastatin] (max concentration tested 10000 nM) What is its recorded percent inhibition of viability?
-9.67

====

# Test system: DERL-7 (IL-2 2.5 ng/mL)
# measurement_notes: relative IC50 (inflection point of fitted viability curve, relative to fitted max inhibition); higher = less sensitive
# recorded_conditions: 72 h
measured_quantity: relative IC50 (nM)
Note: unit nM is implicit; provide only the numeric part.

INSERT INTO assay_data (molecule, measured_quantity, output_unit, endpoint_result) VALUES
  ('C[C@]12C=CC(=O)C=C1CC[C@@H]1[C@@H]2[C@@H](O)C[C@@]2(C)[C@H]1CC[C@]2(O)C(=O)CO [Prednisolone]', 'relative IC50', 'nM', 65.7),
  ('COC[C@H](NC(=O)c1cnc(C)s1)C(=O)N[C@@H](COC)C(=O)N[C@@H](Cc1ccccc1)C(=O)[C@@]1(C)CO1 [Oprozomib]', 'relative IC50', 'nM', 10.5),
  ('CN(Cc1cnc2nc(N)nc(N)c2n1)c1ccc(C(=O)N[C@@H](CCC(=O)O)C(=O)O)cc1 [Methotrexate]', 'relative IC50', 'nM', 268);

Consider the molecule CN[C@@H](C)C(=O)N[C@H](C(=O)N1CCC[C@H]1c1nc(C(=O)c2ccc(F)cc2)cs1)C1CCCCC1 [LCL161] and give its measured relative IC50.
1390

Give its relative IC50 value. Item: CO[C@H](C(=O)[C@@H](O)[C@@H](C)O)[C@@H]1Cc2cc3cc(O[C@H]4C[C@@H](O[C@@H]5C[C@@H](O)[C@H](O)[C@@H](C)O5)[C@H](O)[C@@H](C)O4)c(C)c(O)c3c(O)c2C(=O)[C@H]1O[C@H]1C[C@@H](O[C@@H]2C[C@@H](O)[C@@H](O[C@@H]3C[C@](C)(O)[C@H](O)[C@@H](C)O3)[C@@H](C)O2)[C@H](O)[C@@H](C)O1 [Plicamycin]
48.2

Fill in the blank: the reported relative IC50 of CC(C)c1c(C(=O)Nc2ccccc2)c(-c2ccccc2)c(-c2ccc(F)cc2)n1CC[C@@H](O)C[C@@H](O)CC(=O)O [Atorvastatin] is ____.
2180

====

Measured drug sensitivity score, listed per entry.
# Tested on: KHYG-1 (IL-2 2.5 ng/mL)
# measurement_notes: drug sensitivity score (DSS) (DSS units); higher = more sensitive; extreme values may be limits of the assay
# recorded_conditions: 72 h
Write the value as a bare number.

INSERT INTO results (compound, endpoint_result) VALUES
  ('O=C(CCCCCCC(=O)Nc1ccc([C@H]2O[C@@H](CSc3nc(-c4ccccc4)c(-c4ccccc4)o3)C[C@@H](c3ccc(CO)cc3)O2)cc1)NO [Tubacin] (max concentration tested 10000 nM)', 4.84),
  ('CNC(=O)c1ccccc1Sc1ccc2c(/C=C/c3ccccn3)n[nH]c2c1 [Axitinib] (max concentration tested 10000 nM)', 11),
  ('O=C(NOCCO)c1ccc2cncn2c1Nc1ccc(I)cc1F [GDC-0623] (max concentration tested 2500 nM)', 13),
  ('Cc1cc(Nc2nc(N[C@@H](C)c3ncc(F)cn3)ncc2Cl)[nH]n1 [AZD1480] (max concentration tested 1000 nM)', 17.9);

Recorded drug sensitivity score of COc1cc([C@@H]2c3cc4c(cc3[C@@H](O[C@@H]3O[C@@H]5CO[C@@H](C)O[C@H]5[C@H](O)[C@H]3O)[C@H]3COC(=O)[C@H]23)OCO4)cc(OC)c1O [Etoposide] (max concentration tested 10000 nM) , please.
16.2

# lookup: drug sensitivity score of N#Cc1ccc2[nH]c(O)c(-c3ccc(CN4CCOCC4)cn3)c2c1 [AZD-1080] (max concentration tested 10000 nM)
0.09

Could you tell me which drug sensitivity score is on file for CC[C@H](CC#N)OC(=O)N[C@@H](C)c1cccc(NC(=O)Nc2ccc(-c3cnco3)c(OC)c2)c1 [AVN944] (max concentration tested 10000 nM) ?
23.1

====

# Tested on: KAI3 (IL-2 2.5 ng/mL)
# measurement_notes: percent inhibition of viability; higher = more inhibition
# recorded_conditions: 72 h; 1000 nM
measured_quantity: percent inhibition of viability

Some entries whose results are on file:
INSERT INTO assay_data (compound, endpoint_result) VALUES
  ('CCn1c(C(=O)N(C2CC2)C2CC2)cc2c3c(ncn3C)c(Nc3cc(C)n(C)n3)nc21 (max concentration tested 10000 nM)', '44.8%'),
  ('O=C(CCCCCCC(=O)Nc1ccccc1)NO [Vorinostat] (max concentration tested 10000 nM)', '72.4%'),
  ('O=C(NC[C@H](O)CO)c1ccncc1Nc1ccc(I)cc1F [Pimasertib] (max concentration tested 10000 nM)', '26.4%');

Could you tell me which percent inhibition of viability is on file for CNC(=O)c1ccc2cc([C@@]3(O)CCn4cncc43)ccc2c1 [Orteronel] (max concentration tested 10000 nM) ?
-4.32%

State the recorded percent inhibition of viability for this entry: CN(N=O)C(=O)N[C@@H](C=O)[C@@H](O)[C@H](O)[C@H](O)CO [Streptozocin] (max concentration tested 10000 nM)
-15.1%

Fill in the blank: the reported percent inhibition of viability of Cc1c(N)nc([C@H](CC(N)=O)NC[C@H](N)C(N)=O)nc1C(=O)N[C@H](C(=O)N[C@H](C)[C@@H](O)[C@H](C)C(=O)N[C@H](C(=O)NCCc1nc(-c2nc(C(=O)NCCC[S+](C)C)cs2)cs1)[C@@H](C)O)[C@@H](OC1OC(CO)C(O)C(O)C1OC1OC(CO)C(O)C(OC(N)=O)C1O)c1cnc[nH]1 (stereo partly specified) [Bleomycin] (max concentration tested 10000 nM) is ____.
52.9%
